Values compiled from ChEMBL document CHEMBL2417397.

System: Vibrio harveyi
assayProtocol: Induction of mutagenecity in Vibrio harveyi BB7M
Assay type: organism-based
settings: in vivo
resultType: Activity

1. Cc1cccc(N2CCN(CN3C(=O)CC(C)(c4ccccc4)C3=O)CC2)c1 (configuration not stated) ... Toxic
2. CC1(c2ccccc2)CC(=O)N(CN2CCN(c3ccccc3F)CC2)C1=O (configuration not stated) ... Non-toxic
3. CC1(c2ccccc2)CC(=O)N(CN2CCN(c3ccc(Cl)cc3)CC2)C1=O (configuration not stated) ... Non-toxic
4. CC1(c2ccccc2)CC(=O)N(CN2CCN(c3ccccc3Cl)CC2)C1=O (configuration not stated) ... Non-toxic
5. CC1(c2ccccc2)CC(=O)N(CN2CCN(c3ccccc3)CC2)C1=O (configuration not stated) ... Non-toxic
6. COc1ccccc1N1CCN(CN2C(=O)CC(C)(c3ccccc3)C2=O)CC1 (configuration not stated) ... Toxic
7. CC1(c2ccccc2)CC(=O)N(CN2CCN(c3ccc(F)cc3)CC2)C1=O (configuration not stated) ... Non-toxic
8. CC1(c2ccccc2)CC(=O)N(CN2CCN(c3ccc(Cl)c(Cl)c3)CC2)C1=O (configuration not stated) ... Toxic
9. COc1cccc(N2CCN(CN3C(=O)CC(C)(c4ccccc4)C3=O)CC2)c1 (configuration not stated) ... Toxic
10. CC1(c2ccccc2)CC(=O)N(CN2CCN(c3cccc(Cl)c3)CC2)C1=O (configuration not stated) ... Non-toxic
11. CCC1(C)CC(=O)NC1=O (configuration not stated) [ETHOSUXIMIDE] ... Non-toxic
12. Cc1ccccc1N1CCN(CN2C(=O)CC(C)(c3ccccc3)C2=O)CC1 (configuration not stated) ... Toxic
